TARGET DESC: recombinant human 11 β-HSD1 (Homo sapiens)
Sequence (P28845 whole entry): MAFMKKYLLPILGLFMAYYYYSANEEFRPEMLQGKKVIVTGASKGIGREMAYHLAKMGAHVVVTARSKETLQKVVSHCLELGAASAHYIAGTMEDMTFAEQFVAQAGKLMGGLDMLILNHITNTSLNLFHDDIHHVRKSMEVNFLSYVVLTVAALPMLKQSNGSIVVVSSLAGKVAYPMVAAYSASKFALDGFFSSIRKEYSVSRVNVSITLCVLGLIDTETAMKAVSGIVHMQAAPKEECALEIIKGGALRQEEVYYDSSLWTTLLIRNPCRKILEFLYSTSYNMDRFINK
PROTOCOL: 11 β-HSD1 SPA Assay (Scintillation Proximity Assay)
Protocol: Inhibition of 11 βHSD1 by test compounds was assessed in vitro by a Scintillation Proximity Assay (SPA). […] The plate was then incubated overnight at room temperature prior to reading on a Microbeta counter. Percent inhibition of each compound was calculated based on the background and the maximal signals. […] Inhibition of 11 β-HSD1 by test compounds was assessed in vitro by a Scintillation Proximity Assay (SPA). […]
pIC50: −log10 of the molar value.
Attribute: pIC50
METRIC: pIC50

• CC(C)(Oc1cc(C(C)(C)O)c(Cl)cc1Cl)C(=O)N[C@H]1C[C@H]2CC[C@@H](C1)N2c1ccc(C(=O)NCC(F)(F)F)cn1 [Example 475] = > 6.70
• CC(C)(Oc1ccc(C(F)(F)F)cc1Cl)C(=O)N[C@H]1C[C@H]2CC[C@@H](C1)N2c1ccc(C(=O)NCC(F)(F)F)cn1 [Example 184] = > 6.70
• CC(C)(Oc1ccc(Cl)cc1S(C)(=O)=O)C(=O)NC1CC2CCC(C1)N2c1ccc(C(=O)NC2CC2(F)F)cn1 (stereo not shown) [Example 357] = > 6.70
• COc1cc(F)ccc1OC(C)(C)C(=O)N[C@H]1C[C@H]2CC[C@@H](C1)N2c1ccc(S(N)(=O)=O)cn1 [Example 221] = > 6.70
• CC(C)(Oc1ccc(F)cc1C(F)(F)F)C(=O)N[C@H]1C[C@H]2CC[C@@H](C1)N2c1ccc(-c2nnn[nH]2)nc1 [Example 292] = > 6.70
• CC(C)(Oc1ccc(Cl)cc1Cl)C(=O)N[C@H]1C[C@H]2CC[C@@H](C1)N2Cc1cccc(C(N)=O)c1 [Example 291] = > 5.70
• CC(C)(Oc1ccc(Cl)cc1Cl)C(=O)N[C@H]1C[C@H]2CC[C@@H](C1)N2c1ccc(NC(=O)NCC(F)(F)F)cc1 [Example 135] = > 6.70
• CC(C)(Oc1ccc(Cl)cc1Cl)C(=O)N[C@H]1C[C@H]2CC[C@@H](C1)N2Cc1ccc(C(N)=O)cc1 [Example 295] = > 5.70
• COCCOc1cc(OC(C)(C)C(=O)N[C@H]2C[C@H]3CC[C@@H](C2)N3c2ccc(C(=O)NCC(F)(F)F)cn2)c(Cl)cc1Cl [Example 382] = > 6.70
• O=C(NCC(F)(F)F)c1ccc(N2[C@@H]3CC[C@H]2C[C@@H](NC(=O)C2(c4ccc(F)c(F)c4)CC2)C3)nc1 [Example 121] = > 6.70
• CC(C)(Oc1ccc(C(F)(F)F)cc1)C(=O)N[C@H]1C[C@H]2CC[C@@H](C1)N2c1ccc(S(C)(=O)=O)cc1 [Example 245] = > 5.70
• C[C@H](NC(=O)c1ccc(N2C3CCC2CC(NC(=O)C(C)(C)Oc2ccc(Cl)cc2Cl)C3)nc1)C(F)(F)F (stereo partly shown) [Example 374] = > 6.70
• O=C(NC1CC1)c1ccc(N2[C@@H]3CC[C@H]2C[C@@H](NC(=O)C2(c4ccc(Cl)cc4)CC2)C3)cc1Cl [Example 63] = > 6.70
